- assay-notes: protein stability index of a GFP-peptide fusion (GPS, HEK-293T) (PSI 1-6); higher = more stable;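 further: 24-mer peptide tiles fused after GFP, lentivirally expressed, FACS-sorted into six equal bins by GFP/DsRed ratio, decoded by Illumina sequencing, PSI is the read-weighted mean bin number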
- setup-conditions: treatment: MLN4924 1 uM, 8 h; c terminus: a fixed tail appended
Readings of protein stability index for the listed sequences
Please reply with the number alone, leaving off any unit.

[
  {
    "seq-text": "ALPEAPAPLLPHITATSLLGTRES [BCL2L13]",
    "recorded-measurement": 4.56
  },
  {
    "seq-text": "PYVSDGNFSNYYVAHPPVTYSQPY [TENT5C]",
    "recorded-measurement": 2.62
  },
  {
    "seq-text": "PGKALGPAATMAVELHYEEGSPRN [C2CD2L]",
    "recorded-measurement": 4.82
  },
  {
    "seq-text": "LNEDPLKWWSDRLALFPLLPKVLQ [ZBED1]",
    "recorded-measurement": 2.16
  },
  {
    "seq-text": "QDDLENPMLETASKLLLSGTADGA [ANKRD17]",
    "recorded-measurement": 5.2
  },
  {
    "seq-text": "ELKLGRKVPESLVRSLRGEEPVPR [LURAP1L]",
    "recorded-measurement": 4.16
  }
]

For the sequence MGNILTCCINSHCGWPRGKDAPCY [DRICH1] , what protein stability index is on record?
2.08

Reported protein stability index for PFTVYQVRWLRPVHRQLGEANEEF [AUP1] : what is it?
2.33

Query (sequence): LRRVLDELTLSKTDLEMQIESLNE [KRT13] ; field requested: protein stability index
2.98

GET /values?readout=protein stability index&item= ARLLGALAARSGAAYGPGARGEDR [TSPAN10]
3.91

Entry under review: LSLIGVRVDVDTYLTSQLPPLREI [NFE2L1] . Reported protein stability index?
2.57

Give its protein stability index value. Item: EGYTPLMEAAREGHEEMVALLLGQ [ANKRD17]
4.07

Would you mind telling me what protein stability index value was observed for RLFTQLKFGVVQTSVEECSQKGCL [CLCN6] ?
2.61
